- protocol.summary: in vitro;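 also: Phospholipid-membrane PAMPA, donor and acceptor in DPBS pH 7.4 with 5% DMSO, 37 °C for 5 h, compound in each well quantified by reverse-phase HPLC-MS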
- Design: dose or concentration left out as unconfirmed
- condition.info: PAMPA, pH 7.4, PAMPA Pe
Starred links: 1 amine or outer side, 2 acyl side, 3 side chain; linkers in the order of their positions; H or OH if unused. Positions of bridges follow the written chain, without caps; N, C: chain ends. Non-standard residues stand in square brackets, D forms with d. Residues, ends and D or L forms follow the SMILES beside them. X1 = O=C([C@]1(CC=[*:3])CCCN1[*:1])[*:2]; αAllylPro = C=CC[C@@]1(C(=O)O)CCCN1; S5 = C=CCCC[C@](C)(N)C(=O)O
recorded.metric: Papp at 5 h

Examples with their reported Papp at 5 h follow.
>  <compound>
CC[C@H](C)[C@@H]1NC(=O)[C@]2(CC=CCCC[C@@](C)(C(=O)N[C@@H](CCCNC(=N)N)C(=O)N[C@@H](CC(C)C)C(=O)N[C@@H](CC(C)C)C(=O)N[C@@H](CCC(N)=O)C(=O)N[C@@H](Cc3ccc(O)cc3)C(=O)NC)NC(=O)[C@H](CC(C)C)NC1=O)CCCN2C(C)=O [PLL4-1] (Ac-[X1]IL[S5]RLLQY-NHMe; staple 1-4)

>  <Papp at 5 h>
≤ 0.1 ×10⁻⁶ cm/s

$$$$
>  <compound>
C=CCCC[C@](C)(NC(=O)[C@H](CC(C)C)NC(=O)[C@H](CCCCN)NC(=O)[C@]1(CC=C)CCCN1C(C)=O)C(=O)N[C@@H](CC(N)=O)C(=O)N[C@@H](CC(C)C)C(=O)N[C@@H](CC(C)C)C(=O)N[C@H](C(=O)N[C@@H](Cc1ccc(O)cc1)C(=O)NC)[C@@H](C)O [PLL4-5 variant 5] (Ac-[αAllylPro]KL[S5]NLLTY-NHMe)

>  <Papp at 5 h>
≤ 0.1 ×10⁻⁶ cm/s

$$$$

Next, consider the following compound.
Q) Return Papp at 5 h (reported value) for this compound: CNC(=O)[C@H](Cc1ccc(O)cc1)NC(=O)[C@@H](NC(=O)[C@H](CC(C)C)NC(=O)[C@H](CC(C)C)NC(=O)[C@H](CC(N)=O)NC(=O)[C@]1(C)CCCC=CCCC[C@](C)(NC(C)=O)C(=O)N[C@@H](C)C(=O)N[C@@H](CCCCN)C(=O)N[C@@H](CC(C)C)C(=O)N1)[C@@H](C)O [PLL4-5 variant 4] (Ac-[S5]AKL[S5]NLLTY-NHMe; staple 1-5)
A) ≤ 0.1 ×10⁻⁶ cm/s

This collection of values is drawn from patent US20230357320A1.
